test system: Croton Oil-Induced Mouse Ear Edema; assay: Croton oil-induced ear edema in mice (Example 1); assay type: in vivo; settings: summary grade of % inhibition
test.readout: Topical Anti-Inflammatory Activity, Croton Oil Assay (Edema)

compound: CC(C)(Cc1ccccc1)NCC(O)c1ccc(O)c(NS(C)(=O)=O)c1 (stereo not shown) [Zinterol]
val: +++ (+++ = high (60%))

compound: COc1ccc2c(c1)c(CC(=O)O)c(C)n2C(=O)c1ccc(Cl)cc1 [Indomethacin, indomethacin]
val: + (+ = Slight (30-44))

compound: CC(C)(C)NCC(O)c1ccc(O)c(CO)c1 (stereo not shown) [Salbutamol, salbutamol]
val: + (+ = Slight (30-44))

compound: CCCCC(=O)O[C@]1(C(=O)CO)CC[C@H]2[C@@H]3CCC4=CC(=O)CC[C@]4(C)[C@H]3[C@@H](O)C[C@@]21C [HCV, hydrocortisone valerate]
val: +++ (+++ = high (60%))

----------
experiment: Solubility of active ingredient in vehicles; type: physicochemical; conditions: organic solvent or mixture; cream vehicle; read-out: Amount that will dissolve in creams
Counter-ions that a name gives are not always drawn.
test.readout: solubility

compound: CC(C)(Cc1ccccc1)NCC(O)c1ccc(O)c(NS(C)(=O)=O)c1 (stereo not shown) [zinterol hydrochloride]
val: ≤ 7000 µg/mL
